Experiment: AUC (0 to infinity) in Sprague-Dawley rat at 5 mg/kg, po
Format: ADME, organism-based
Design: dose 5 mg/kg, route oral, time infinity
Conditions: plasma
Some molecules, each annotated with its measured AUC(0-inf).
Report the value in ng·h/mL with no unit label.

AUC(0-inf) measured on `C=C[C@@H]1C[C@]1(NC(=O)[C@@H]1C[C@@H](Oc2ncc(OC)c3ccc(Cl)cc23)CN1C(=O)[C@@H](Nc1ccc2c(c1)B(O)OC2)C(C)(C)C)C(=O)NS(=O)(=O)C1CC1` = 75

Here is another molecule to look at.
AUC(0-inf) measured on `C=C[C@@H]1C[C@]1(NC(=O)[C@@H]1C[C@@H](Oc2ncc(OC)c3ccc(Cl)cc23)CN1C(=O)[C@@H](NC(=O)Nc1ccc2c(c1)B(O)OC2)C(C)(C)C)C(=O)NS(=O)(=O)C1CC1` = 41

----------
Test: Absorption in Sprague-Dawley rat at 5 mg/kg, po
Assay type: ADME, organism-based
Set-up: dose 5 mg/kg, route oral
Settings: in vivo, read-out: Activity
ENDPOINT NAME: Fa (%)
Report the value in % with no unit label.

Fa measured on `C=C[C@@H]1C[C@]1(NC(=O)[C@@H]1C[C@@H](Oc2ncc(OC)c3ccc(Cl)cc23)CN1C(=O)[C@@H](Nc1ccc2c(c1)B(O)OC2)C(C)(C)C)C(=O)NS(=O)(=O)C1CC1` = 4.9

***
Fa measured on `C=C[C@@H]1C[C@]1(NC(=O)[C@@H]1C[C@@H](Oc2ncc(OC)c3ccc(Cl)cc23)CN1C(=O)[C@@H](NC(=O)Nc1ccc2c(c1)B(O)OC2)C(C)(C)C)C(=O)NS(=O)(=O)C1CC1` = 0.92

----------
Some molecules, each annotated with its measured bioavailability.
Assay: Oral bioavailability in Sprague-Dawley rat at 5 mg/kg, po
Format: ADME, organism-based
Details: in vivo

bioavailability measured on `C=C[C@@H]1C[C@]1(NC(=O)[C@@H]1C[C@@H](Oc2ncc(OC)c3ccc(Cl)cc23)CN1C(=O)[C@@H](Nc1ccc2c(c1)B(O)OC2)C(C)(C)C)C(=O)NS(=O)(=O)C1CC1` = 4.3%

Here is another molecule to look at.
bioavailability measured on `C=C[C@@H]1C[C@]1(NC(=O)[C@@H]1C[C@@H](Oc2ncc(OC)c3ccc(Cl)cc23)CN1C(=O)[C@@H](NC(=O)Nc1ccc2c(c1)B(O)OC2)C(C)(C)C)C(=O)NS(=O)(=O)C1CC1` = 0.42%

----------
Some compounds, each annotated with its measured logD.
Assay: Lipophilicity, log D of the compound
Assay type: physicochemical
Conditions: octanol/water
API note: the answer field is a bare number with no unit suffix.

logD measured on `C=C[C@@H]1C[C@]1(NC(=O)[C@@H]1C[C@@H](Oc2ncc(OC)c3ccc(Cl)cc23)CN1C(=O)[C@@H](Nc1ccc2c(c1)B(O)OC2)C(C)(C)C)C(=O)NS(=O)(=O)C1CC1` = 4

Here is another compound to look at.
logD measured on `C=C[C@@H]1C[C@]1(NC(=O)[C@@H]1C[C@@H](Oc2ncc(OC)c3ccc(Cl)cc23)CN1C(=O)[C@@H](NC(=O)Nc1ccc2c(c1)B(O)OC2)C(C)(C)C)C(=O)NS(=O)(=O)C1CC1` = 4.5

----------
Tested on: Hepatitis C virus
Experiment: Antiviral activity against Hepatitis C virus genotype 1b by cell based assay
Format: functional, organism-based, Hepacivirus hominis
ENDPOINT NAME: pEC50
# pEC50 is unitless: minus log10 of the molar concentration; print number only

Recorded results for 6 molecules are shown here.
pEC50 measured on `C=C[C@@H]1C[C@]1(NC(=O)[C@@H]1C[C@@H](Oc2ncc(OC)c3ccc(Cl)cc23)CN1C(=O)[C@@H](NC(=O)c1ccc2c(c1)B(O)OC2)C(C)(C)C)C(=O)NS(=O)(=O)C1CC1` = 7.04

pEC50 measured on `C=C[C@@H]1C[C@]1(NC(=O)[C@@H]1C[C@@H](OC(=O)N2Cc3cccc(F)c3C2)CN1C(=O)[C@@H](NC(=O)Nc1cc2c(cc1F)COB2O)C(C)(C)C)C(=O)NS(=O)(=O)C1CC1` = 7.25

pEC50 measured on `C=C[C@@H]1C[C@]1(NC(=O)[C@@H]1C[C@@H](Oc2ncc(OC)c3ccc(Cl)cc23)CN1C(=O)[C@@H](NC(=O)Nc1ccc2c(c1)B(O)OC2)C(C)(C)C)C(=O)NS(=O)(=O)C1CC1` = 7.62

pEC50 measured on `C=C[C@@H]1C[C@]1(NC(=O)[C@@H]1C[C@@H](Oc2ncc(OC)c3ccc(Cl)cc23)CN1C(=O)[C@@H](NC(=O)Nc1cc2c(cc1F)COB2O)C(C)(C)C)C(=O)NS(=O)(=O)C1CC1` = 8.37

pEC50 measured on `C=C[C@@H]1C[C@]1(NC(=O)[C@@H]1C[C@@H](Oc2ncc(OC)c3ccc(Cl)cc23)CN1C(=O)[C@@H](Nc1ccc2c(c1)B(O)OC2)C(C)(C)C)C(=O)NS(=O)(=O)C1CC1` = 7.47

pEC50 measured on `C=C[C@@H]1C[C@]1(NC(=O)[C@@H]1C[C@@H](Oc2ncc(OC)c3ccc(Cl)cc23)CN1C(=O)[C@@H](NC(=O)Nc1ccc2c(c1)B(O)OC2(C)C)C(C)(C)C)C(=O)NS(=O)(=O)C1CC1` = 6.89

***
pEC50 measured on `C=C[C@@H]1C[C@]1(NC(=O)[C@@H]1C[C@@H](Oc2ncc(OC)c3ccc(Cl)cc23)CN1C(=O)[C@@H](NC(=O)Nc1cccc2c1COB2O)C(C)(C)C)C(=O)NS(=O)(=O)C1CC1` = 7.09

pEC50 measured on `C=C[C@@H]1C[C@]1(NC(=O)[C@@H]1C[C@@H](Oc2ncc(OC)c3ccc(Cl)cc23)CN1C(=O)[C@@H](NC(=O)Nc1cc2c(cc1Cl)COB2O)C(C)(C)C)C(=O)NS(=O)(=O)C1CC1` = 7.47

pEC50 measured on `C=C[C@@H]1C[C@]1(NC(=O)[C@@H]1C[C@@H](Oc2ncc(OC)c3ccc(Cl)cc23)CN1C(=O)[C@@H](NC(=O)NCc1ccc2c(c1)B(O)OC2)C(C)(C)C)C(=O)NS(=O)(=O)C1CC1` = 7.60

pEC50 measured on `C=C[C@@H]1C[C@]1(NC(=O)[C@@H]1C[C@@H](Oc2ncc(OC)c3ccc(Cl)cc23)CN1C(=O)[C@@H](NC(=O)Oc1ccc2c(c1)B(O)OC2)C(C)(C)C)C(=O)NS(=O)(=O)C1CC1` = 7.64

pEC50 measured on `C=C[C@@H]1C[C@]1(NC(=O)[C@@H]1C[C@@H](Oc2ncc(OC)c3ccc(Cl)cc23)CN1C(=O)[C@@H](NC(=O)Nc1cccc2c1B(O)OC2)C(C)(C)C)C(=O)NS(=O)(=O)C1CC1` = 7.42

pEC50 measured on `C=C[C@@H]1C[C@]1(NC(=O)[C@@H]1C[C@@H](Oc2cc(-c3nc(C(C)C)cs3)nc3c(C)c(OC)ccc23)CN1C(=O)[C@@H](NC(=O)Nc1cc2c(cc1F)COB2O)C(C)(C)C)C(=O)NS(=O)(=O)C1CC1` = 8.07
